Assay: Tanguay_ZF_120hpf_PFIN_legacy: (Legacy) Oregon State University Tanguay Lab 120 Hour Post-fertilization zebrafish Assay for Pectoral Fin Malformation (AID 2283648);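 note: each larva judged yes or no for fin defect by brightfield with dead larvae skipped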
Inconclusive results are not listed. The source made the active and inactive calls. Rule for the calls: active = hit-call score of the fitted dose curve at least 0.9, where 1 is the maximum; inconclusive = response in the unintended direction; inactive = score below 0.9.
Respond only with the outcome that fits, drawn from active, inactive

Example entries begin here.
>>> class_name("COS(C)(=O)=O")
"inactive"
>>> class_name("CC(C)CCCCCCOC(=O)C1CCCCC1C(=O)OCCCCCCC(C)C (centres undefined)")
"inactive"
>>> class_name("CCCCCCCC1CCC(=O)O1 (centres undefined)")
"active"

# outcome recorded in this test, key = OC[C@H]1O[C@@](CO)(O[C@H]2O[C@H](CO)[C@@H](O)[C@H](O)[C@H]2O)[C@@H](O)[C@@H]1O
inactive

# outcome recorded in this test, key = Cc1nccn1-c1ccc(Sc2cccc(C3(C(N)=O)CCOCC3)c2)cc1
inactive

# outcome recorded in this test, key = OCc1ccccc1
inactive

# outcome recorded in this test, key = CCCCC(CC)C(=O)OCCOCCOCCOC(=O)C(CC)CCCC (centres undefined)
inactive

# outcome recorded in this test, key = CCCCCCCCCCCCCCO
inactive

----------
Test: Tanguay_ZF_120hpf_SNOU_legacy: (Legacy) Oregon State University Tanguay Lab 120 Hour Post-fertilization zebrafish Assay for Snout Malformation (AID 2283637)
Inconclusive results are not listed. The source made the active and inactive calls. The calls were made as follows: active = hit-call score of the fitted dose curve at least 0.9, where 1 is the maximum; inconclusive = response in the unintended direction; inactive = score below 0.9.
parameter measured: AC50

>>> result("C[C@@H](Oc1ccc(CNC(=O)c2cccnc2Oc2ccc3c(c2)OCO3)c(F)c1)C(=O)O")
"inactive"
>>> result("CC(C)CC(C)O (stereo unspecified)")
"inactive"
>>> result("c1ccc2ncccc2c1")
"inactive"
>>> result("CC(C)C(=O)Nc1ccc([N+](=O)[O-])c(C(F)(F)F)c1")
"inactive"
>>> result("NC(=O)N(O)[C@@H]1COc2cc(OCc3ccccc3)ccc21")
"inactive"

Below: the item to evaluate.
Need AC50, item CCCCCCCC1CCC(=O)O1 (stereo unspecified)
31.9 µM (active)

----------
Experiment: BSK_CASM3C_SRB: Viability Assessment in the BioMAP Diversity Plus: CASM3C Assay (AID 2283050);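 note: total protein by SRB staining as cytotoxicity measure in parallel cultures; cells exposed to compound for 24 h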
Settings: primary human coronary artery smooth muscle cells
Activity calls are given as the source filed them. The calls were made as follows: active = hit-call score of the fitted dose curve at least 0.9, where 1 is the maximum; inactive = score below 0.9.
Respond only with the outcome that fits, drawn from active, inactive

Example entries begin here.
>>> class_name("NC(=O)N1c2ccccc2C=Cc2ccccc21")
"inactive"
>>> class_name("CCc1cccc(CC)c1N")
"inactive"
>>> class_name("OC(Cn1cncn1)(Cn1cncn1)c1ccc(F)cc1F")
"inactive"
>>> class_name("Cc1ncc([C@@H](CCCCCCc2ccc3c(n2)NCCC3)CC(=O)O)cn1")
"inactive"
>>> class_name("O=C(Cl)C(F)(F)C(F)(F)C(F)(F)C(=O)Cl")
"inactive"
>>> class_name("CCN(CC)C(=S)SSC(=S)N(CC)CC")
"active"

Read the next record carefully.
# outcome recorded in this test, key = Nc1ccn([C@@H]2O[C@H](CO)[C@@H](O)[C@@H]2O)c(=O)n1
inactive

----------
Read-out: Cytochrome P450 2C19 (Homo sapiens) (UniProt P33261)
Sequence (P33261 whole entry, looked up): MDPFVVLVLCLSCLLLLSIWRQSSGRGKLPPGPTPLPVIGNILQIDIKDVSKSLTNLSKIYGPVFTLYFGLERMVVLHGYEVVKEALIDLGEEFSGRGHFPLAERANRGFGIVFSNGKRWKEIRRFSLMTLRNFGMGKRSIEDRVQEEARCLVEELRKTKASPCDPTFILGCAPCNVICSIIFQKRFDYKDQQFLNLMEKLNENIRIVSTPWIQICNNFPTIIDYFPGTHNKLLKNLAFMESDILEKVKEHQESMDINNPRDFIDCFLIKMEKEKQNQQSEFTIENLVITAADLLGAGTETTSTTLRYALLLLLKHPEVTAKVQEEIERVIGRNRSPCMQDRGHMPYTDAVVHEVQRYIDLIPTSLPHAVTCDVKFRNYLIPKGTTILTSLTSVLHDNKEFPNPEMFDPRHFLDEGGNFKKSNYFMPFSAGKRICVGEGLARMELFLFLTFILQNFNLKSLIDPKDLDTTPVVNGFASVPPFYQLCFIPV
Assay: LTEA_HepaRG_CYP2C19: Life Technologies and Expression Analysis (LTEA) Assay for CYP2C19 using HepaRG (AID 2283482)
Conditions: mRNA level, 48 h; actives raise or lower the signal
Calls of active or inactive are those of the source. Rule for the calls: active = hit-call score of the fitted dose curve at least 0.9, where 1 is the maximum; inactive = score below 0.9.
parameter measured: outcome

Here are 5 compounds together with their reported answers.
>>> result("C[C@@H](Oc1ccc(CNC(=O)c2cccnc2Oc2ccc3c(c2)OCO3)c(F)c1)C(=O)O")
"inactive"
>>> result("c1ccc2ncccc2c1")
"inactive"
>>> result("CCCCCCCCCCCCCCO")
"inactive"
>>> result("CCCCCCCCN(C)C")
"inactive"
>>> result("CC(=O)c1ccccc1")
"inactive"

Below: the item to evaluate.
Need outcome, item OCC(CO)(CO)CO
inactive

All figures here come from PubChem BioAssay (EPA / NIEHS).
